Please provide measured AAK1 (STD-NMR hit flag) for the entries that follow.
- Study Target: AAK1 (121-471) (Homo sapiens, UniProt Q2M2I8)
- Sequence (Q2M2I8 46-315 limits assumed): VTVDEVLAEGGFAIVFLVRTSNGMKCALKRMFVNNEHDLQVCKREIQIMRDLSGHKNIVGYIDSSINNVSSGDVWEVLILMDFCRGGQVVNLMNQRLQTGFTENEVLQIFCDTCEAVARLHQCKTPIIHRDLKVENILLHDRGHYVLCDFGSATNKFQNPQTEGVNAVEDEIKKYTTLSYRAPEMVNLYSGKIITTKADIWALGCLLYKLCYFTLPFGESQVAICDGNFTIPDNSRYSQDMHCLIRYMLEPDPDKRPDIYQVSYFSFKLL
- Assay Notes: STD-NMR fragment screening, AAK1
- Type: binding
- Experimental Context: 1 = hit, 0 = no hit
Answers are plain numbers.

State the recorded AAK1 (STD-NMR hit flag) for every item in the following list.
1. NC(CCO)c1ccc(Cl)cc1Cl (centres unmarked)
2. Clc1cnc2ccccn12
3. Cc1nn(CCN)cc1Cl
4. Nc1ncc(C(=O)O)cc1Br
5. O=C(O)C(O)c1cccc(Cl)c1 (centres unmarked)

[A]
1: 0; 2: 1; 3: 0; 4: 0; 5: 0
